Molecular target: 5-HT-uptake (reuptake of serotonine in synaptosomes) (Rattus norvegicus, UniProt P31652)
Construct: in synaptosomes as described in WO 97/16451; from tissue
Sequence (P31652 whole entry): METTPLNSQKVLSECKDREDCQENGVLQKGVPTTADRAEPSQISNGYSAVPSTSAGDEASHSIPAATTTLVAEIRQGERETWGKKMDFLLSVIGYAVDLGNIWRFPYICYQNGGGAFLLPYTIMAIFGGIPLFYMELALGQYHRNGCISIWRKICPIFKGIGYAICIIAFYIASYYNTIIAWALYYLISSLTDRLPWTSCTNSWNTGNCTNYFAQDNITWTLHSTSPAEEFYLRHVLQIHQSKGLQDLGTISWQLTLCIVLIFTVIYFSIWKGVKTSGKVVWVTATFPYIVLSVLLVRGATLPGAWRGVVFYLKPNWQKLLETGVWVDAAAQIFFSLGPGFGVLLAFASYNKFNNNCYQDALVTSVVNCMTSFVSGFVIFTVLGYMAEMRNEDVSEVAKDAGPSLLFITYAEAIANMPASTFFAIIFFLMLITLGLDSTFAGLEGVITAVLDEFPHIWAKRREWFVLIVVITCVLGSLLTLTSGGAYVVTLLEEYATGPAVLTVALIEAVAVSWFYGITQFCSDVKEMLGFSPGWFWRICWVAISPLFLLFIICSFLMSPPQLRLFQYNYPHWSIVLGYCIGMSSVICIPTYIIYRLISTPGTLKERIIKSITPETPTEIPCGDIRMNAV
Assay: Inhibition of serotonine (5-HT) reuptake in synaptosomes
Type: biochemical
readout-type: pIC50
Scale: pIC50 equals -log10([C]), with [C] in mol/L.

Query: Query the reported pIC50 for 5-HT-uptake (reuptake of serotonine in synaptosomes) (Rattus norvegicus, UniProt P31652); item: C1=C(c2ccc3ccccc3c2)CC2CCC1N2 (single isomer, unassigned; (+))
Response: 9.47

====

Target: NA-uptake (reuptake of noradrenaline in synaptosomes) (Rattus norvegicus, UniProt Q9WTR4)
Construct: in synaptosomes as described in WO 97/16451; from tissue
Sequence (Q9WTR4 1-597): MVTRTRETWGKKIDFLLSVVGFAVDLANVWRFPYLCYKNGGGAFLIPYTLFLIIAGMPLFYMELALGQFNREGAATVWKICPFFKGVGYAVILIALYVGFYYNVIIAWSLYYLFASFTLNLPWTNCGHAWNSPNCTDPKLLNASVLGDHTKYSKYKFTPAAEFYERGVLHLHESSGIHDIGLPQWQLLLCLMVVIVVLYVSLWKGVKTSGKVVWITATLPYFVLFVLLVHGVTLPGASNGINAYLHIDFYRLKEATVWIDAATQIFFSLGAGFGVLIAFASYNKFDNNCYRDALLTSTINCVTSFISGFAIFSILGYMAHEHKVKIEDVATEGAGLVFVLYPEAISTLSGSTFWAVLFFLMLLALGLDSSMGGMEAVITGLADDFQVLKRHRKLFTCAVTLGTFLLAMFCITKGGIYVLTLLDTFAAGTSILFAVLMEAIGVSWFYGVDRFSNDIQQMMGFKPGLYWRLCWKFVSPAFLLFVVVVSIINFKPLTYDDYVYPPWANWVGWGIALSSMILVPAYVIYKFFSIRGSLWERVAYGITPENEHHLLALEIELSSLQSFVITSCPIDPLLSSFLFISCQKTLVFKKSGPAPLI
Experiment: Inhibition of noradrenaline (NA) reuptake in synaptosomes
Type: biochemical
Settings: synaptosomes, 3H-NA; read-out: NA-uptake IC50
Each entry below carries its recorded IC50.
Write the numeric value and append its unit.

CN1C2C=C(c3ccc4ccccc4c3)CC1CC2 (single isomer, unassigned; (-))
0.018 µM

Consider the additional compound presented here.
Query: GET /values?readout=IC50&item= Clc1ccc(C2=CC3CCC(C2)N3)cc1 (single isomer, unassigned; (+))
Response: 0.028 µM

====

Molecular target: 5-HT-uptake (reuptake of serotonine in synaptosomes) (Rattus norvegicus, UniProt P31652)
Construct: in synaptosomes as described in WO 97/16451; from tissue
Test: Inhibition of serotonine (5-HT) reuptake in synaptosomes
Type: biochemical
Details: synaptosomes, 3H-5-HT; read-out: 5-HT-uptake IC50
Each entry below carries its recorded IC50.

Clc1ccc(C2=CC3CCC(C2)N3)cc1 (single isomer, unassigned; (+)) [1st compound of method A]
10 nM

Consider the additional compound presented here.
Query: GET /values?readout=IC50&item= CN1C2C=C(c3ccc4ccccc4c3)CC1CC2 (single isomer, unassigned; (-)) [1st compound of method E]
Response: 0.23 nM

====

Molecular target: DA-uptake (reuptake of dopamine in synaptosomes) (Rattus norvegicus, UniProt P23977)
Construct: in synaptosomes as described in WO 97/16451; from tissue
Sequence (P23977 whole entry): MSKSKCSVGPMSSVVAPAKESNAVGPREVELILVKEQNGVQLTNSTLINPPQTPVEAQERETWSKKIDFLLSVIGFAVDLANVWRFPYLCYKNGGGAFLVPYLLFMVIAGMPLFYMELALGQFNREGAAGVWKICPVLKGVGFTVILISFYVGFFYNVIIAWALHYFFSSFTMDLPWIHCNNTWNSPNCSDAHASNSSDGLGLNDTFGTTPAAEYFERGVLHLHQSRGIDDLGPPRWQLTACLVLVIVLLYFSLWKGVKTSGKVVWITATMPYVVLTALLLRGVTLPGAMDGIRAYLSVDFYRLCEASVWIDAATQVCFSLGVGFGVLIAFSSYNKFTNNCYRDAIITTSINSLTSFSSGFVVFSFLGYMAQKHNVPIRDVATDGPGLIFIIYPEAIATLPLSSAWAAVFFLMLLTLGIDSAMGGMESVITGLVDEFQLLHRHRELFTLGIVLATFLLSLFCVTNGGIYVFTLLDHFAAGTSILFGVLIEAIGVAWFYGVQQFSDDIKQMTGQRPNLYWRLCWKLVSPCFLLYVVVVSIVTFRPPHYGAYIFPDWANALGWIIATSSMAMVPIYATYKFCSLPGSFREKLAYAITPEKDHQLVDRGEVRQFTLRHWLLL
Experiment: Inhibition of dopamine (DA) reuptake in synaptosomes
Format: biochemical
Settings: synaptosomes, 3H-DA; read-out: DA-uptake IC50
Each entry below carries its recorded pIC50.
Scale: pIC50 equals -log10([C]), with [C] in mol/L.

CN1C2C=C(c3ccc4ccccc4c3)CC1CC2 (single isomer, unassigned; (-))
7.47

Consider the additional compound presented here.
Query: GET /values?readout=pIC50&item= Clc1ccc(C2=CC3CCC(C2)N3)cc1 (single isomer, unassigned; (+))
Response: 6.59

====

Molecular target: NA-uptake (reuptake of noradrenaline in synaptosomes) (Rattus norvegicus, UniProt Q9WTR4)
Construct: in synaptosomes as described in WO 97/16451; from tissue
Experiment: Inhibition of noradrenaline (NA) reuptake in synaptosomes
Type: biochemical
readout-type: pIC50
Scale: pIC50 equals -log10([C]), with [C] in mol/L.

Query: GET /values?readout=pIC50&item= C1=C(c2ccc3ccccc3c2)CC2CCC1N2 (single isomer, unassigned; (+))
Response: 7.89
